System: Pseudomonas aeruginosa (Pa)
Assay: MIC for Pseudomonas aeruginosa, nutrient agar
Type: cell-based, Pseudomonas aeruginosa ATCC 10145
Details: pH 6.8, 30° C., 48 hours, read-out: Minimum Inhibitory Concentration (MIC), Pa
Description: The minimum inhibitory concentration (MIC) for the compounds listed in Table I is determined for 9 bacteria, using nutrient agar; and 7 yeast and fungi, using malt yeast agar. A one percent solution of the test compound is prepared in a mixture of acetone and water. […] The inoculated petri plates are incubated at 30° C. for 48 hours and then read to determine if the test compound which is incorporated into the agar prevented growth of the respective bacteria. […]
The following compounds are shown together with reported MIC values.

Past entries and their recorded results:
> print(dat)
                                   compound  reported.value
1  N#CC1=C(C#N)Sc2c(cnn(-c3ccc(Br)cc3)c2=O)S1     > 500 µg/mL
2  N#CC1=C(C#N)Sc2c(cnn(-c3ccc(Cl)c(Cl)c3)c2=O)S1     > 500 µg/mL

Report MIC for `N#CC1=C(C#N)Sc2c(cnn(-c3ccccc3)c2=O)S1` please.
250 µg/mL

Note, next up: `N#CC1=C(C#N)Sc2c(cnn(-c3ccc(Cl)cc3)c2=O)S1`
> 500 µg/mL

Note, next up: `N#CC1=C(C#N)Sc2c(cnn(-c3cccc(Cl)c3)c2=O)S1`
> 500 µg/mL

Note, next up: ClC=CC[N+]12CN3CN(CN(C3)C1)C2.[Cl-] [STANDARD I, reference compound]
100 µg/mL

###

system: Bacillus subtilis (Bs); experiment: MIC for Bacillus subtilis, nutrient agar; format: cell-based, Bacillus subtilis ATCC 8473; details: pH 6.8, nutrient agar, 30° C., 48 hours, read-out: Minimum Inhibitory Concentration (MIC), Bs
The following molecules are shown together with reported MIC values.

> print(dat)
                                   molecule           system.tested  reported.value
1  N#CC1=C(C#N)Sc2c(cnn(Cc3ccccc3)c2=O)S1 [I]  Bacillus subtilis (Bs)      < 10 µg/mL
2  Cc1ccc(Cn2ncc3c(c2=O)SC(C#N)=C(C#N)S3)cc1 [K]  Bacillus subtilis (Bs)      < 10 µg/mL
3  N#CC1=C(C#N)Sc2c(cnn(Cc3ccc(Cl)cc3)c2=O)S1 [J]  Bacillus subtilis (Bs)      < 10 µg/mL

Please provide the recorded MIC for N#CC1=C(C#N)Sc2c(cnn(-c3ccccc3)c2=O)S1 [A] , tested on Bacillus subtilis (Bs).
50 µg/mL

Note, next up: N#CC1=C(C#N)Sc2c(cnn(-c3ccc(Cl)cc3Cl)c2=O)S1 [G]
25 µg/mL

Note, next up: N#CC1=C(C#N)Sc2c(cnn(-c3ccc([N+](=O)[O-])cc3)c2=O)S1 [H]
> 500 µg/mL

###

test system: Bacillus subtilis (Bs); assay: MIC for Bacillus subtilis, nutrient agar; format: cell-based, Bacillus subtilis ATCC 8473; settings: pH 8.2, nutrient agar, 30° C., 48 hours, read-out: Minimum Inhibitory Concentration (MIC), Bs
quantity_name: MIC (µg/mL)
Write the answer as a number in µg/mL, unit excluded.

Report MIC for N#CC1=C(C#N)Sc2c(cnn(-c3ccccc3)c2=O)S1 [A] please.
500

Note, next up: N#CC1=C(C#N)Sc2c(cnn(-c3ccc(Cl)cc3)c2=O)S1 [D]
250
